# protocol: Acute toxicity
# Assay type: in vivo, mice (ddy)
# assayContext: mouse, in vivo, ip; ddy mice, single i.p., 14 days, Behren Korber's method
Field 'label' (enum: Y / N). Set to Y when LD50 at 336 h is strictly under 20 mg/kg; else N.

[
  {
    "compound": "CC1=C(NCCSSCCNC(=O)C(F)(F)F)C(=O)C2=C(C1=O)N1C[C@H]3[C@H](N3C)[C@]1(O)[C@H]2COC(N)=O (stereo partly shown)",
    "class": "N"
  },
  {
    "compound": "CO[C@@]12[C@H](COC(N)=O)C3=C(C(=O)C(C)=C(NCCSSCCNC(=O)C(F)(F)F)C3=O)N1C[C@@H]1N[C@@H]12",
    "class": "Y"
  },
  {
    "compound": "CC1=C(NCCSSCc2c[nH]c(=O)[nH]c2=O)C(=O)C2=C(C1=O)N1C[C@H]3[C@H](N3C)[C@]1(O)[C@H]2COC(N)=O (stereo partly shown)",
    "class": "N"
  },
  {
    "compound": "CO[C@@]12[C@H](COC(N)=O)C3=C(C(=O)C(C)=C(NCCSSCCCCNC(=O)CC[C@H](N)C(=O)O)C3=O)N1C[C@@H]1N[C@@H]12",
    "class": "N"
  },
  {
    "compound": "CC1=C(NCCSSCC(=O)O[C@H]2CC[C@H]3[C@@H]4CCc5cc(OC(=O)c6ccccc6)ccc5[C@H]4CC[C@]23C)C(=O)C2=C(C1=O)N1C[C@H]3[C@H](N3C)[C@]1(O)[C@H]2COC(N)=O (stereo partly shown)",
    "class": "N"
  },
  {
    "compound": "CC1=C(NCCSSCCNC(=O)CC[C@H](N)C(=O)O)C(=O)C2=C(C1=O)N1C[C@H]3[C@H](N3C)[C@]1(O)[C@H]2COC(N)=O (stereo partly shown)",
    "class": "N"
  },
  {
    "compound": "CO[C@@]12[C@H](COC(N)=O)C3=C(C(=O)C(C)=C(NCCSSCc4cn([C@H]5C[C@H](O)[C@@H](CO)O5)c(=O)[nH]c4=O)C3=O)N1C[C@@H]1N[C@@H]12",
    "class": "N"
  },
  {
    "compound": "CO[C@@]12[C@H](COC(N)=O)C3=C(C(=O)C(C)=C(NCCSSCCC(=O)NCCc4ccc(O)c(O)c4)C3=O)N1C[C@@H]1N[C@@H]12",
    "class": "N"
  },
  {
    "compound": "CO[C@@]12[C@H](COC(N)=O)C3=C(C(=O)C(C)=C(NCCSSCCC(N)=O)C3=O)N1C[C@@H]1N[C@@H]12",
    "class": "Y"
  },
  {
    "compound": "CC1=C(NCCSSCc2cn([C@H]3C[C@H](O)[C@@H](CO)O3)c(=O)[nH]c2=O)C(=O)C2=C(C1=O)N1C[C@H]3[C@H](N3C)[C@]1(O)[C@H]2COC(N)=O (stereo partly shown)",
    "class": "N"
  },
  {
    "compound": "CO[C@@]12[C@H](COC(N)=O)C3=C(C(=O)C(C)=C(NCCSSCCC(=O)NC[C@H](O)c4ccc(O)c(O)c4)C3=O)N1C[C@@H]1N[C@@H]12",
    "class": "N"
  },
  {
    "compound": "CC1=C(NCCSSCCC(=O)N[C@@H](CCCN)C(=O)O)C(=O)C2=C(C1=O)N1C[C@H]3[C@H](N3C)[C@]1(O)[C@H]2COC(N)=O (stereo partly shown)",
    "class": "N"
  },
  {
    "compound": "CO[C@@]12[C@H](COC(N)=O)C3=C(C(=O)C(C)=C(NCCSSCCNC(=O)C[C@H](N)C(=O)O)C3=O)N1C[C@@H]1N[C@@H]12",
    "class": "N"
  },
  {
    "compound": "CC1=C(NCCSSCCNC(=O)C[C@H](N)C(=O)O)C(=O)C2=C(C1=O)N1C[C@H]3[C@H](N3C)[C@]1(O)[C@H]2COC(N)=O (stereo partly shown)",
    "class": "N"
  },
  {
    "compound": "CO[C@@]12[C@H](COC(N)=O)C3=C(C(=O)C(C)=C(NCCSSCCNC(=O)CC[C@H](N)C(=O)O)C3=O)N1C[C@@H]1N[C@@H]12",
    "class": "N"
  },
  {
    "compound": "CO[C@@]12[C@H](COC(N)=O)C3=C(C(=O)C(C)=C(NCCSSCCCNC(=O)CC[C@H](N)C(=O)O)C3=O)N1C[C@@H]1N[C@@H]12",
    "class": "N"
  },
  {
    "compound": "CO[C@@]12[C@H](COC(N)=O)C3=C(C(=O)C(C)=C(NCCSSCCNC(=O)CCC(=O)Oc4c(C)c(C)c5c(c4C)CC[C@@](C)(CCC[C@H](C)CCC[C@H](C)CCCC(C)C)O5)C3=O)N1C[C@@H]1N[C@@H]12",
    "class": "N"
  },
  {
    "compound": "CO[C@@]12[C@H](COC(N)=O)C3=C(C(=O)C(C)=C(NCCSSCCNC(=O)CC[C@@H](N)C(=O)O)C3=O)N1C[C@@H]1N[C@@H]12",
    "class": "N"
  },
  {
    "compound": "CO[C@@]12[C@H](COC(N)=O)C3=C(C(=O)C(C)=C(NCCSSCCSC(C)=O)C3=O)N1C[C@@H]1N[C@@H]12",
    "class": "Y"
  },
  {
    "compound": "CO[C@@]12[C@H](COC(N)=O)C3=C(C(=O)C(C)=C(NCCSSCCC(=O)O[C@H]4CC[C@H]5[C@@H]6CCc7cc(OC(=O)c8ccccc8)ccc7[C@H]6CC[C@]45C)C3=O)N1C[C@@H]1N[C@@H]12",
    "class": "N"
  },
  {
    "compound": "CC1=C(NCCSSCCNC=O)C(=O)C2=C(C1=O)N1C[C@H]3[C@H](N3C)[C@]1(O)[C@H]2COC(N)=O (stereo partly shown)",
    "class": "N"
  },
  {
    "compound": "CO[C@@]12[C@H](COC(N)=O)C3=C(C(=O)C(C)=C(NCCSSCC(=O)O[C@H]4CC[C@H]5[C@@H]6CCc7cc(OC(=O)c8ccccc8)ccc7[C@H]6CC[C@]45C)C3=O)N1C[C@@H]1N[C@@H]12",
    "class": "Y"
  }
]

Source listed as patent US5103018A.
